A collection of compounds and their measured Formed TBARS (%)
System: rabbit LDL
ASSAY_OVERVIEW: Amount of thiobarbituric acid reactive substances (TBARS) formed on Cu2+ oxidation of LDL
Type: biochemical
COND: Compound conc. 10^-5 M; 5 µM of Cu²⁺ added to rabbit LDL, followed by heating; 10 µM

COMPOUND: COc1cc(NC2CCCC3CCCCC32)cc(OC)c1OC (stereo not drawn)
Formed TBARS (%): 10
//
COMPOUND: COc1cc(NCc2ccccn2)cc(OC)c1OC
Formed TBARS (%): 43
//
COMPOUND: COc1cc(NC/C=C(\C)CCC=C(C)C)cc(OC)c1OC
Formed TBARS (%): 37
//
COMPOUND: COc1cc(NCC=Cc2ccccc2)cc(OC)c1OC
Formed TBARS (%): 20
//
COMPOUND: COc1cc(NCc2ccc(OC/C=C(\C)CC/C=C(\C)CCC=C(C)C)cc2)cc(OC)c1OC
Formed TBARS (%): 39
//
COMPOUND: COc1cc(NCCCc2ccc(CO)cc2)cc(OC)c1OC
Formed TBARS (%): 16
//
COMPOUND: COc1cc(NC2CCC3CCCCC3C2)cc(OC)c1OC (stereo not drawn)
Formed TBARS (%): 7
//
COMPOUND: COc1cc(NCCC(C)CCCC(C)CCCC(C)CCCC(C)C)cc(OC)c1OC (stereo not drawn)
Formed TBARS (%): 15
//
COMPOUND: COc1cc(NCc2ccc(C)c(C)c2)cc(OC)c1OC
Formed TBARS (%): 9

====

Tested on: rabbit or human LDL
ASSAY_OVERVIEW: Electrophoretic mobility in agarose gel of LDL oxidised with Cu2+
Assay type: biochemical
COND: Compound conc. 10 x 10⁻⁶ M; 10 µM of Cu²⁺, 37°C approximately 24 hours; expressed by regarding the mobility of LDL as 1.00 (Control 1.61)
MEASURE_NAME: Mobility

COMPOUND: COc1cc(NCc2ccccc2)cc(OC)c1OC [Compound 1, N-benzyl-3,4,5-trimethoxyaniline]
STUDY_SYSTEM: rabbit or human LDL
EXPERIMENTAL_RESULT: 1.17
//
COMPOUND: CC(C)(C)c1cc(CNCc2ccccc2)cc(C(C)(C)C)c1O [Compound 185]
STUDY_SYSTEM: rabbit or human LDL
EXPERIMENTAL_RESULT: 1.15
//
COMPOUND: O=C(Nc1ccc(C(=O)c2ccccc2)cc1)c1ccc(O)c(O)c1 [Compound 194]
STUDY_SYSTEM: rabbit or human LDL
EXPERIMENTAL_RESULT: 1.00
//
COMPOUND: COc1cc(NC/C=C(\C)CCC=C(C)C)cc(OC)c1OC [Compound 118]
STUDY_SYSTEM: rabbit or human LDL
EXPERIMENTAL_RESULT: 1.17
//
COMPOUND: Oc1ccc(-c2onc3ccc(Cl)cc23)cc1O [Compound 205]
STUDY_SYSTEM: rabbit or human LDL
EXPERIMENTAL_RESULT: 1.00
//
COMPOUND: O=C(c1ccc(O)c(O)c1)N1CCN(C(c2ccccc2)c2ccccc2)CC1 [Compound 197]
STUDY_SYSTEM: rabbit or human LDL
EXPERIMENTAL_RESULT: 1.00
